FYI, the data here is from PubChem BioAssay (NCATS).

system: Zika virus NS2B-NS3 protease (unlinked complex); assay: Primary screen GU Rhodamine qHTS for Zika virus inhibitors: Unlinked NS2B-NS3 protease assay (AID 1347159); settings: Recombinant ZIKV NS2B-NS3 protease, Rhodamine110 substrate fluorescence; series mostly up to 107 µM; further: on the % scale 0 is the no-effect control and ±100 the full control effect; nearly all actives have a fitted effect of over 60% in size
Results filed as inconclusive are left out. The source made the active and inactive calls. The call rests on the fitted dose curve; in most records, active means well fitted inhibition curve with a large enough effect; inconclusive means small, poorly fitted or top-dose-only effect; inactive means no such curve, though single readings can be large or run the other way.
measured.property: activity change, negative = inhibition

Form: Entry = C[C@@H]1O[C@@H](O[C@@H]2[C@@H](O[C@@H]3O[C@@H](C)[C@H](O[C@@H]4OC[C@H](O)[C@H](O[C@@H]5OC[C@@H](O)[C@H](O)[C@H]5O)[C@H]4O)[C@@H](O[C@@H]4OC[C@](O)(CO)[C@H]4O)[C@H]3O)[C@H](OC(=O)[C@]34CCC(C)(C)C[C@H]3C3=CCC5[C@@]6(C)C[C@H](O)[C@H](O[C@@H]7O[C@H](CO[C@@H]8OC[C@H](O)[C@H](O)[C@H]8O)[C@@H](O)[C@H](O)[C@H]7O)C(C)(C)C6CC[C@@]5(C)[C@]3(C)C[C@H]4O)OC[C@H]2O)[C@H](O)[C@H](O)[C@H]1O (stereo not given in full) | System = Zika virus NS2B-NS3 protease (unlinked complex) | activity change, negative = inhibition = ____
11.8% [at 19.1 µM] (inactive)

Form: Entry = CC(=O)O[C@@H]1[C@H](O[C@@H]2O[C@@H](CO)[C@H](O)[C@H]2O)[C@@H](O[C@@H]2O[C@@H](C)[C@H](O[C@@H]3OC[C@@H](O)[C@H](O)[C@H]3O)[C@@H](O)[C@H]2O)[C@H](OC(=O)[C@]23CCC(C)(C)C[C@H]2C2=CCC4[C@@]5(C)CC[C@H](O[C@@H]6O[C@H](C(=O)O)[C@@H](O)[C@H](O)[C@H]6O[C@@H]6O[C@H](CO)[C@H](O)[C@H](O)[C@H]6O)[C@@](C)(C=O)C5CC[C@@]4(C)[C@]2(C)CC3)O[C@@H]1C (stereo not given in full) | System = Zika virus NS2B-NS3 protease (unlinked complex) | activity change, negative = inhibition = ____
10.7% [at 19.1 µM] (inactive)

Form: Entry = C/C=C(\C)C(=O)O[C@@H]1CC2[C@@H](CC=C3C[C@@H](O[C@H]4C[C@H](OC)[C@H](O[C@H]5C[C@H](OC)[C@H](O[C@@H]6O[C@H](C)[C@@H](O[C@H]7C[C@H](OC)[C@H](O[C@@H]8O[C@H](CO)[C@@H](O)[C@H](O)[C@H]8O)[C@@H](C)O7)[C@H](OC)[C@H]6O)[C@@H](C)O5)[C@@H](C)O4)CC[C@@]32C)[C@@]2(O)CC[C@H](C(C)=O)[C@@]12C (stereo not given in full) | System = Zika virus NS2B-NS3 protease (unlinked complex) | activity change, negative = inhibition = ____
8.5% [at 19.1 µM] (inactive)

Form: Entry = C[C@@H]1O[C@@H](O[C@H]2[C@H](O)[C@@H](O[C@@H]3O[C@H](CO)[C@@H](O)[C@H](O[C@@H]4O[C@H](CO)[C@@H](O)[C@H](O)[C@H]4O)[C@H]3O)[C@H](O[C@H]3CC[C@@]4(C)C(=CC[C@@H]5C4CC[C@@]4(C)C5C[C@@H]5OC6(CC[C@@](C)(CO[C@@H]7O[C@H](CO)[C@@H](O)[C@H](O)[C@H]7O)O6)[C@@H](C)[C@@H]54)C3)O[C@@H]2CO)[C@H](O)[C@H](O)[C@H]1O (stereo not given in full) | System = Zika virus NS2B-NS3 protease (unlinked complex) | activity change, negative = inhibition = ____
33% [at 19.1 µM] (inactive)

Form: Entry = C[C@@H]1O[C@@H](O[C@H]2[C@H](OC(=O)[C@]34CCC(C)(C)C[C@H]3C3=CCC5[C@@]6(C)C[C@H](O)[C@H](O[C@@H]7O[C@H](CO)[C@@H](O)[C@H](O)[C@H]7O)[C@@](C)(CO)C6[C@H](O)C[C@@]5(C)[C@]3(C)C[C@H]4O)OC[C@H](O)[C@@H]2O)[C@H](O)[C@H](O)[C@H]1O[C@@H]1OC[C@@H](O)[C@H](O[C@H]2OC[C@](O)(CO)[C@H]2O)[C@H]1O (stereo not given in full) | System = Zika virus NS2B-NS3 protease (unlinked complex) | activity change, negative = inhibition = ____
7.01% [at 19.1 µM] (inactive)

###

tested on: PA-1; assay: Primary qHTS to identify gynecologic anti-cancer compounds using libraries of approved drugs and bioactive compounds (AID 1345084); settings: Gynecologic cancer cell panel viability, ATPlite luminescence, 48 h; series mostly up to 57.5 µM; further: nearly all actives have a fitted effect of over 55% in size
Records with an inconclusive call do not appear. Calls of active or inactive are those of the source. Calls come from the whole dose curve; as a rule, active = well fitted cell-killing curve with a large enough effect; inconclusive = small, poorly fitted or top-dose-only effect, or effect the other way; inactive = flat fitted curve, though single readings scatter.
Reply using exactly one outcome from yes (active), no (inactive)

Write down the call the test reported for this compound. Item: `CO[C@H]1C[C@@H]2CC[C@@H](C)[C@@](O)(O2)C(=O)C(=O)N2CCCC[C@H]2C(=O)O[C@H]([C@H](C)C[C@@H]2CC[C@@H](OP(C)(C)=O)[C@H](OC)C2)CC(=O)[C@H](C)/C=C(\C)[C@@H](O)[C@@H](OC)C(=O)[C@H](C)C[C@H](C)/C=C/C=C/C=C/1C`
no

Write down the call the test reported for this compound. Item: `O=C(c1ccc(/C=C/c2n[nH]c3ccccc23)cc1)N1CCNCC1`
yes

Write down the call the test reported for this compound. Item: COC1/C=C/C(C)(O)C(SCC(N)C(=O)O)CC(=O)OC(C)C(C)CC/C=C/1C (configuration not stated)
no

Write down the call the test reported for this compound. Item: CC1(C(=O)O)CCCC2(C)C3CCC4CC3(CCC12)CC4=O (configuration not stated)
no

Write down the call the test reported for this compound. Item: `COc1ccc([C@H]2CNC(=O)C2)cc1OC1CCCC1`
no

Write down the call the test reported for this compound. Item: CC1=C(C)C(=O)OC(C(C)C2CCC3C4CC=C5CC(OC6OC(COC7OC(CO)C(O)C(O)C7O)C(O)C(O)C6O)CC(O)C5(C)C4CCC23C)C1 (configuration not stated)
no

Write down the call the test reported for this compound. Item: COC(=O)C[C@H]1[C@]2(C)C3=C(C)[C@H](c4ccoc4)C[C@H]3O[C@@H]2[C@H](OC(C)=O)C2[C@](C)(C(=O)OC)C=CC(=O)[C@@]21C (some centres not stated)
no

###

tested on: CRL-7250; assay: Cytotoxic Profiling of Annotated Libraries Using Quantitative High-Throughput Screening (AID 1296008); details: Five cell lines viability, CellTiter-Glo ATP luminescence, 48-72 h; further: nearly all actives have a fitted effect of over 60% in size; further: potency means the concentration at half of the fitted maximal effect
Inconclusive results are not listed. Active and inactive are the calls of the source. The call rests on the fitted dose curve; in most records, active means well fitted inhibition curve with a large enough effect; inconclusive means small, poorly fitted or top-dose-only effect; inactive means flat fitted curve, though single readings scatter.
measured.property: Potency

Some compounds with known Potency results, for comparison:
Which Potency is reported for this compound? C=C1C(=O)OC2CC(C)=C(C(C)CCCO)C(O)C12 (stereo unspecified)
inactive

Which Potency is reported for this compound? `CN(C)CCn1cc(S(=O)(=O)c2cccc(F)c2)c2cccnc21`
inactive

Which Potency is reported for this compound? `COc1cc2ncnc(Nc3cccc(O)c3)c2cc1OC`
inactive

Which Potency is reported for this compound? `O=C(OC[C@@]1(O)CO[C@@H](O[C@H]2[C@H](Oc3ccc(O)cc3)O[C@H](CO)[C@@H](O)[C@@H]2O)[C@@H]1O)c1ccc(O)cc1`
inactive

---
Which Potency is reported for this compound? `CC(=O)N1CCN(Cc2ccc([C@H](C)Nc3nccc(N4C(=O)OC[C@@H]4C(C)C)n3)cc2)CC1`
920 nM (active)

Which Potency is reported for this compound? `O=S(=O)(Nc1ccccn1)c1ccc(N=Cc2c(O)[nH]c3ccc4ncsc4c23)cc1`
inactive

###

target: Nicotinamide N-methyltransferase (Homo sapiens) (UniProt P40261); assay: Confirmatory Screen for Target Class Profiling of Small Molecule Inhibitors of Methyltransferases (AID 1745852); conditions: MTase-Glo luminescence, SAH detection, recombinant enzyme; measured here: NNMT max response; stronger effect = lower value
Sequence (P40261 whole entry, looked up): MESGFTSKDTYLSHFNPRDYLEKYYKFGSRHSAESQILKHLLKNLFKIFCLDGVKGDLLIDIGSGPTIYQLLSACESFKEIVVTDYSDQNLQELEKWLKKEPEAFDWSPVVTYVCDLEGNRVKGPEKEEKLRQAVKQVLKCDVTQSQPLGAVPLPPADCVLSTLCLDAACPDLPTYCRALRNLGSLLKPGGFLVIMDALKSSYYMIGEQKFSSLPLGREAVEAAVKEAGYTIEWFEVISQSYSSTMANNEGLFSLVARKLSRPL
measured.property: activity (%)
A number alone suffices; assume %.

Which activity is reported for this compound? `c1cc(OCCCN2CCCCC2)ccc1CN1CCCCC1`
-0.228

Which activity is reported for this compound? `CCN1CCN(Cc2ccc(NC(=O)Nc3ccc(Oc4cc(NC)ncn4)cc3)cc2C(F)(F)F)CC1`
-7.66

Which activity is reported for this compound? CC1CCC2(CO)C(C(=O)O)=CCCC2C1(C)CCc1ccoc1 (centres undefined)
1.37

Which activity is reported for this compound? `COc1cc2c(cc1OC)N1C(=O)C[C@]34C=CCN5CC[C@@H]2[C@@H](CC3)[C@]514`
1.78

Which activity is reported for this compound? `Cc1cc(=O)oc2c(C=O)c(O)ccc12`
-24

Which activity is reported for this compound? `CN(c1ccccc1CNc1nc(Nc2ccc3c(c2)CC(=O)N3)ncc1C(F)(F)F)S(C)(=O)=O`
-47.3

Which activity is reported for this compound? `COc1cc(N2CCC(N3CCN(C)CC3)CC2)ccc1Nc1ncc(Cl)c(-c2c[nH]c3ccccc23)n1`
-32.6

Which activity is reported for this compound? CC(C)c1c2cc(-c3ccnc(NC4CCC(NC5CCOCC5)CC4)n3)ccc2nn1C (centres undefined)
-14.6

Which activity is reported for this compound? CCC(C)C(=O)OC1CC(O)C23C4OCC5(C(O)CC2C1(C)C(O)O4)C3C(=O)C(O)C1(C)C(O)(c2ccoc2)CC2OC251 (centres undefined)
-4.23
